test system: RARb homodimer (NR concentration 270 nM); experiment: PBM binding z-score (relative to random genomic background probes); higher = stronger binding; sequences stand for … in GC…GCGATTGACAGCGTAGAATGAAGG
// reported PBM binding z-score per item
MEASURED METRIC: PBM binding z-score

* TCATATAGGTAAAAGGTGCAAGTCGGTGTGGTAA | 0.775
* TCTTGTAGCTCAACAGGAGGTTAAGAAAGATCGA | -0.0225
* CGAACTAGGTCATCCAGTACAGTGAATACATTGA | 3.05
* ATCTCTAGGTATAGTTCAGTGAAAGATCGATAGA | 1.4
* AAGACAGGGTCATCGTAGGCCAGAGTACGCACAG | 3.6
* CCTAGTTGGTCAGGAGGTCACACAGCGGATATGA | 4.13
* TCGAGTAGGTTAGTCGGGGCATTCGGCCAACATA | 0.848
* CCTTACGGGTCACTCCAGGTTATACCATCGGAGT | 2.89
* GCTAGCAGGCCATTGGGGTCACTCAATGACGGGC | 3.44
* CGTCCAAGGTCAGCAGGTCAGCGAAAGCGACGTG | 5.14
* CGTCAAAGTTCAAGGTAACTTAACAGAAAGCAGC | 3.81
* CCTCGGAGAACAGAAGGTCAGAGCTGTCCGCTTT | 2.93

* * *

tested on: PPARg homodimer (NR concentration 180 nM); assay: PBM binding z-score (relative to random genomic background probes); higher = stronger binding; sequences stand for … in GC…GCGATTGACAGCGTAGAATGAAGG
MEASURED METRIC: PBM binding z-score

- TCTTGTAGATAAAGCAGGTTAAGAAAGCCTGAGT: 0.35
- TCTTGCAGATCAATAGAGGTTAAGAAAGTGCGCT: -0.12
- CGTCCAAGGTCATAGGACGTCAGTGAAGACAGAT: 1.99
- CGTCCAAGGTCACAGGTCAGTGAAGAGATGACGG: 2.75
- ATTTCTAGGTAAAGATAGTTCAGTGAATGCAAAT: 1.56
- CCTACTGTGCCAAAAAGGTCATTGATGCCGATAA: 3.9
- GGAACGAGGGTATTCGAGTTGATAGCATGGCGAT: -0.648
- CGAACTAGGTCTTTGACAGGACAGTGAATAGTAA: 0.0171
- GCTATTTGTTGAAAGGGCAACCGAATGATTCTCG: 1.53
- CGTCCAAGGTCAGCAGGTCAGTGAGAGCGACGTG: 3.25
- TCTTGTAGATCAGCAGGTTAAGAGAGCTGGCCAA: -0.22
- TGAATGAGGTTGTAAGATCAGGGAACGTTGCAAA: -0.324
- CCGCCTGGGGCAAAGGTTACCATACTCAGTACGA: 2.34
- ATCGAAAGGTCGTGAGGTGGGTATACAGAAAGGC: 3.69
- AATACAGGGTCATCGTAGGCCTGAGTACGCACAG: 2.11
- AGTCAAAGTTCAGGACGGGGTAACGTAAAGCACG: 1.87
- GCTGCTAGGTCAGGTTGGTCAGGTAACGGGTACG: 0.641
- CGTCAAAGTTCAGGGTAACGTAACAGAAAGCAGC: 2.87
- CCTCGGAGGACAACAGGAGGTTAGAGCTGCCAGA: -0.214
- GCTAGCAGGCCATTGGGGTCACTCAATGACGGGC: 1.48
- CCGACTGGGGCAATGTTACCATAACGCACAGCCA: 0.142
- TAGCCTAGGTCATGGGCAAGTATACCACGCGAAC: 1.13
- CGTCCAAGGTCTAAGGTCAGTGAAGAGATGACGG: 2.23
- CATAGTTGGTCAGGAGGTCACACACCGGATATGA: 3.84
- ATCGAAAGGTCGAGGTGAGCATAGAGAAAGGGAA: 1.39
- ACAGACAGGTGAGTGAAGGTAACCCAGCTGGACG: 0.0822

* * *

test system: VDR:RXRa (NR concentration 270 nM, RXRa partner concentration 90 nM); test: PBM binding z-score (relative to random genomic background probes); higher = stronger binding; sequences stand for … in GC…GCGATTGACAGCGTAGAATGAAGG
// reported PBM binding z-score per item
MEASURED METRIC: PBM binding z-score

- ATATGTAGCTTACATCCGGGTCATTCAGGCTATG: 2.82
- AGTATGAGGTTATTAAGATCAGGGAATTGCGGTC: 2.58
- CCAGACAGGTGAGGAGGTAACTCAGCCTCGATTA: 0.00298
- ACTATTAGTTGACTTAGGGCAATCGATACGACGC: 0.462
- CCGACTGGGGCATAACGTTACCATAAGCCAGCCC: -0.52
- CGATCTAGGTCAGAACAGGACAGTGAAGGATGAT: 0.316
- AATACAGGGTCATCGAAGGCCAGAGTACGCACAG: 5.49
- AATACAGGCTCATCGTAGGCCAGAGTACGCACAG: -0.438
- ACTTACGGGTCAACGAGGTTATAGCCCGCGTATA: 7.59
- GCAGATAGGTGAAACGCAGGTAACTCAGGGTGGC: -0.534
- TCGAGTAGGTTACCAATGGGGCTTTCAGCTTTCT: -0.42
- GCATATAGGTAATACAAGGCGAAAGTCCGATTGT: -0.126

* * *

// reported PBM binding z-score per item
tested on: PPARg DBDmut IVT, anti-PPARg (DBD mutation: PPARg1 K132A/R137A, NR concentration 270 nM); experiment: PBM binding z-score (relative to random genomic background probes); higher = stronger binding; sequences stand for … in GC…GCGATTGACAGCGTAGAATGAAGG
MEASURED METRIC: PBM binding z-score

* CCTGCTAGGTCAATTGTCAGCTAAAGCAGCTCGC | -0.703
* GCGACTGGGGCATCAGCAGGGTACCATAACTTAA | -0.946
* CCGACTGGGGCAGAAAGGTTACCAAACCATCCGG | -0.56
* AGTCAAAGTTCAGGACGAGGAAACGTAAAGCACG | 0.55
* GCGACTGGGGCAAGGCAGGTTACCATAAGGTTGG | -0.934
* CCTGCTGGGCCACGAAAGGTCATTGATTCAGTGA | -0.339

* * *

system: RARa homodimer (NR concentration 270 nM); assay: PBM binding z-score (relative to random genomic background probes); higher = stronger binding; sequences stand for … in GC…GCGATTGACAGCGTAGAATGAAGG
Classes by PBM binding z-score: zone 1 (below -0.4), zone 2 (-0.4 to below 1), zone 3 (1 or more)

* CCGACTGGGGCATCAGGTTACCATAAGCCAGCCC | zone 1
* ACAGACAGGTGAAGAAGGTAACTCAGGCTATCAT | zone 2
* ATCGAAAGGTCGCCGAGGTGAGTATACACCGTTT | zone 2
* TCGAGTAGGTTACCAATGGGACATTCAGCTTTCT | zone 1
* ACTATTAGTTGACTTATGGCAACCGATACGACGC | zone 3
* CAAACTAGGTCAAAGGTTAAAGTCGAGCCAACCA | zone 3
* TCTAGTTGGTAAAAGGTCACACACTCGAAATGCG | zone 3
* AGTCAAAGTTCATCTAGGTTACGTAAGATATGCT | zone 3
* CGTCCAAGGACAAGGTCAGTGAAAGAGACTCGAA | zone 2
* TCTTGTAGATCAGCAGGAGGTTAAGAAAGATCGA | zone 1
* ATCGAAAGGTCGACGAGGTGAGTATACACCGTTT | zone 3
* CAAACTAGGTCACCGGAAGGTCAAAGCCCGCATG | zone 3
* TTACCAAGGTGAGCTGAGGTCGTTGGTCCAACTC | zone 1
* TCTCGGAGGACTCGAAGGTCAGAGCTTTCCAGAG | zone 1
* ATATGTAGGTGACATCCGGGTCATTCAGGCTATG | zone 2
* GCAGACAGGTGAATCGCAGGTAACTCAGGGTGGC | zone 1
* GCATGTAGATCAAGGTTAAGAAAGACTAAGCTAA | zone 2
* TCAGATAGGTAAAAGGTGAAAGTCGGTGTGGTAA | zone 3
* TCTTGTAGATCAGCAGTTTAAGAAAGCTGGCCAA | zone 2
* CTCGAAAGGTCGTGCTCAGGGGAGTATACCAAAC | zone 2
* ACTCGGAGGACAAAGGTCAGTGCTACGCCAGTGA | zone 3
* ATCTCTAGGTTAAGTTCAGTGAAAGATCGATAGA | zone 3
* AGAATAAGGTTAAGATCAGGGAAACAGAATACAT | zone 3
* TAGCCTAGGTCATGCGGGCGAGTATAGTGTCGGC | zone 2
* GCATATAGGTAATACAAGGTGAAACTCCGATTGT | zone 2

Values were extracted from the supplement of paper PMC6555819.
